Below is a list of entries, each paired with its recorded IC50 value.
# SUBJECT_OF_TEST: Carboxy-terminal domain RNA polymerase II polypeptide A small phosphatase 1 (Homo sapiens)
# Sequence (Q9GZU7 whole entry, the tested form may be a part): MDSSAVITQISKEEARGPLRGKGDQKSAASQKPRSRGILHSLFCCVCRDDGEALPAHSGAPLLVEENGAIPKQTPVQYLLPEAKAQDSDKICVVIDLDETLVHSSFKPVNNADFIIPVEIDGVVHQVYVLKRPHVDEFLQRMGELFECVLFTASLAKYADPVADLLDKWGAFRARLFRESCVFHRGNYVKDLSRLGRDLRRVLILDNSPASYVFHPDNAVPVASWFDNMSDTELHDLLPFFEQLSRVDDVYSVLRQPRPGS
# PROTOCOL_TEXT: inhibitors of CTDSP1, concentration-response testing, biochemical assay, absorbance-based, actives from ultra-high-throughput screening (AID 540297)
# Type: functional
Calls of active or inactive are those of the source.
OBSERVATION_TYPE: IC50

1) O=C(N/N=C/c1ccc2c(c1)OCO2)c1ccc(COCC(F)(F)C(F)F)cc1; 9.06 µM (active)
2) O=C(CCN1C(=O)/C(=C\C=C\c2ccccc2)SC1=S)Nc1cccc(C(=O)O)c1; 4.8 µM (active)
3) Cc1cc(C)c(C)c(S(=O)(=O)N[C@@H](C)C(=O)OCc2cc(=O)n3cc(Br)ccc3n2)c1C; 7.42 µM (active)
4) COc1ccc(Cn2c(C3CCCCC3)nc3c(c(=O)c4ccccc4n3C)c2=O)cc1; 5.55 µM (active)
5) O=C1CCN(Cc2ccccc2)S(=O)(=O)c2ccccc21; 39.3 µM (active)
6) O=C1N=c2ccccc2=C1Nc1ccc(S(=O)(=O)Nc2nccs2)cc1; 4.2 µM (active)
7) Cc1ccc(S(=O)(=O)Cc2ccc(C(=O)O)o2)cc1; 3.66 µM (active)
8) Cc1ccc(C(=O)O)cc1-c1ccc(/C=C2/NC(=O)N(c3ccccc3)C2=O)o1; 4.1 µM (active)
9) Cc1nn(-c2ccc(F)cc2)c(Cl)c1/C=N/NC(=O)c1cccc(S(=O)(=O)N2CCCC2)c1; 10.7 µM (active)
10) Cc1ccc(C(=O)NNC(=O)c2cc3cc4ccccc4nc3s2)cc1; 4.33 µM (active)
11) CCN(CC)c1ccc(NC(=O)CCS(=O)(=O)c2ccc(Br)cc2)c(C)c1; 3.04 µM (active)

###

# SUBJECT_OF_TEST: SWI/SNF-related matrix-associated actin-dependent regulator of chromatin subfamily A member 2 (Homo sapiens, UniProt P51531)
# Sequence (P51531 whole entry): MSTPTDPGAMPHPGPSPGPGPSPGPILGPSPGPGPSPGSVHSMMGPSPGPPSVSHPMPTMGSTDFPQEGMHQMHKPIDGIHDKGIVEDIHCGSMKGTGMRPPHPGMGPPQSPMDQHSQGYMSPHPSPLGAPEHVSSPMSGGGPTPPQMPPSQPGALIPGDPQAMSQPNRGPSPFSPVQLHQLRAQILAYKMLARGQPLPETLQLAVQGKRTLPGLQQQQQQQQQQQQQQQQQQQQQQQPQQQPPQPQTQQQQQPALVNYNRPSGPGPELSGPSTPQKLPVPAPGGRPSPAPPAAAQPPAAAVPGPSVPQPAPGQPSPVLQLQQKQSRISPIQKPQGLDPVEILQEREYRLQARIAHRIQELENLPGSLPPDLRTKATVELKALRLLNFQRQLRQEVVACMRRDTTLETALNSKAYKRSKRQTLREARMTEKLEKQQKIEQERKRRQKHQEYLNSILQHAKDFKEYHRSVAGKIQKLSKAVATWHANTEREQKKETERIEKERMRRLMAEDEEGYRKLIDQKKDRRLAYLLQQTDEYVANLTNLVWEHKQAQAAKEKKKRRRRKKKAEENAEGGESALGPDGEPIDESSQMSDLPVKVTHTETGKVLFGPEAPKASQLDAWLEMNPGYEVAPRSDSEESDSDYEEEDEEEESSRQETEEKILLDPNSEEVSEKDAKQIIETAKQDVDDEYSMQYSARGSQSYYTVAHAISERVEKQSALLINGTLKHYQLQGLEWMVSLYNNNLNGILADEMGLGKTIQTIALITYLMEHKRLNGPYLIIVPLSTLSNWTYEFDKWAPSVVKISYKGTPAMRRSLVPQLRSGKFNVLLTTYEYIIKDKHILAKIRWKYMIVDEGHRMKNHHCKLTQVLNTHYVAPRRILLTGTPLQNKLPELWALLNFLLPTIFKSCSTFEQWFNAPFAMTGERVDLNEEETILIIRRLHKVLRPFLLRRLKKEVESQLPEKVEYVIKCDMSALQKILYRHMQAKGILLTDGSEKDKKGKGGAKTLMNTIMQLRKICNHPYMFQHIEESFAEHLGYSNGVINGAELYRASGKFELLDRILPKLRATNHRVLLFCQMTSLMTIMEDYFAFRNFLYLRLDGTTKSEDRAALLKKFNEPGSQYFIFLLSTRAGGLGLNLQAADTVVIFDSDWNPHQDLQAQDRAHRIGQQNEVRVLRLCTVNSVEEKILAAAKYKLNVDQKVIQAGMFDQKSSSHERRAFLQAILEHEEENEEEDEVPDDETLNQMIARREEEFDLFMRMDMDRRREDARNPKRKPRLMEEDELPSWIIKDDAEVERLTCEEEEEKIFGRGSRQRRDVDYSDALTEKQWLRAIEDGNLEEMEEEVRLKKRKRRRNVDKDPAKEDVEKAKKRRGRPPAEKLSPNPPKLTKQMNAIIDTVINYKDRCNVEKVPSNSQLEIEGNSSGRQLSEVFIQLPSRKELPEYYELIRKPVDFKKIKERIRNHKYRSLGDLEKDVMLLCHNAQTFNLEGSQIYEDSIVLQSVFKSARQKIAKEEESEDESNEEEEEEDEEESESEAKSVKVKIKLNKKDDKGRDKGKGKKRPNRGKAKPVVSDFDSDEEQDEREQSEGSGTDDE
# PROTOCOL_TEXT: Luminescence-based cell-based high throughput dose response assay to identify activators of the function of SWI/SNF related, matrix associated, actin dependent regulator of chromatin, subfamily a, member 2 (SMARCA2, BRM).
# Assay type: functional
Active and inactive are the calls of the source.
Overview of recorded EC50 for various compounds
OBSERVATION_TYPE: EC50

1. Nc1nc(CN2CCN(Cc3ccccc3)CC2)nc(Nc2ccc3c(c2)OCCO3)n1; > 91.2 µM (inactive)
2. COc1ccc(-c2cc(C#N)nc(Cl)n2)cc1; > 91.2 µM (inactive)
3. CC(=O)Nc1cccc(NC(=O)CSc2ncc(C(=O)Nc3ccccc3)c(=O)n2C)c1; > 91.1 µM (inactive)
4. Cc1ccsc1C(=O)OCC(=O)NCCC1=CCCCC1; > 91.1 µM (inactive)

###

# SUBJECT_OF_TEST: Fatty acid synthase (Homo sapiens)
# Sequence (P49327 whole entry, the tested form may be a part): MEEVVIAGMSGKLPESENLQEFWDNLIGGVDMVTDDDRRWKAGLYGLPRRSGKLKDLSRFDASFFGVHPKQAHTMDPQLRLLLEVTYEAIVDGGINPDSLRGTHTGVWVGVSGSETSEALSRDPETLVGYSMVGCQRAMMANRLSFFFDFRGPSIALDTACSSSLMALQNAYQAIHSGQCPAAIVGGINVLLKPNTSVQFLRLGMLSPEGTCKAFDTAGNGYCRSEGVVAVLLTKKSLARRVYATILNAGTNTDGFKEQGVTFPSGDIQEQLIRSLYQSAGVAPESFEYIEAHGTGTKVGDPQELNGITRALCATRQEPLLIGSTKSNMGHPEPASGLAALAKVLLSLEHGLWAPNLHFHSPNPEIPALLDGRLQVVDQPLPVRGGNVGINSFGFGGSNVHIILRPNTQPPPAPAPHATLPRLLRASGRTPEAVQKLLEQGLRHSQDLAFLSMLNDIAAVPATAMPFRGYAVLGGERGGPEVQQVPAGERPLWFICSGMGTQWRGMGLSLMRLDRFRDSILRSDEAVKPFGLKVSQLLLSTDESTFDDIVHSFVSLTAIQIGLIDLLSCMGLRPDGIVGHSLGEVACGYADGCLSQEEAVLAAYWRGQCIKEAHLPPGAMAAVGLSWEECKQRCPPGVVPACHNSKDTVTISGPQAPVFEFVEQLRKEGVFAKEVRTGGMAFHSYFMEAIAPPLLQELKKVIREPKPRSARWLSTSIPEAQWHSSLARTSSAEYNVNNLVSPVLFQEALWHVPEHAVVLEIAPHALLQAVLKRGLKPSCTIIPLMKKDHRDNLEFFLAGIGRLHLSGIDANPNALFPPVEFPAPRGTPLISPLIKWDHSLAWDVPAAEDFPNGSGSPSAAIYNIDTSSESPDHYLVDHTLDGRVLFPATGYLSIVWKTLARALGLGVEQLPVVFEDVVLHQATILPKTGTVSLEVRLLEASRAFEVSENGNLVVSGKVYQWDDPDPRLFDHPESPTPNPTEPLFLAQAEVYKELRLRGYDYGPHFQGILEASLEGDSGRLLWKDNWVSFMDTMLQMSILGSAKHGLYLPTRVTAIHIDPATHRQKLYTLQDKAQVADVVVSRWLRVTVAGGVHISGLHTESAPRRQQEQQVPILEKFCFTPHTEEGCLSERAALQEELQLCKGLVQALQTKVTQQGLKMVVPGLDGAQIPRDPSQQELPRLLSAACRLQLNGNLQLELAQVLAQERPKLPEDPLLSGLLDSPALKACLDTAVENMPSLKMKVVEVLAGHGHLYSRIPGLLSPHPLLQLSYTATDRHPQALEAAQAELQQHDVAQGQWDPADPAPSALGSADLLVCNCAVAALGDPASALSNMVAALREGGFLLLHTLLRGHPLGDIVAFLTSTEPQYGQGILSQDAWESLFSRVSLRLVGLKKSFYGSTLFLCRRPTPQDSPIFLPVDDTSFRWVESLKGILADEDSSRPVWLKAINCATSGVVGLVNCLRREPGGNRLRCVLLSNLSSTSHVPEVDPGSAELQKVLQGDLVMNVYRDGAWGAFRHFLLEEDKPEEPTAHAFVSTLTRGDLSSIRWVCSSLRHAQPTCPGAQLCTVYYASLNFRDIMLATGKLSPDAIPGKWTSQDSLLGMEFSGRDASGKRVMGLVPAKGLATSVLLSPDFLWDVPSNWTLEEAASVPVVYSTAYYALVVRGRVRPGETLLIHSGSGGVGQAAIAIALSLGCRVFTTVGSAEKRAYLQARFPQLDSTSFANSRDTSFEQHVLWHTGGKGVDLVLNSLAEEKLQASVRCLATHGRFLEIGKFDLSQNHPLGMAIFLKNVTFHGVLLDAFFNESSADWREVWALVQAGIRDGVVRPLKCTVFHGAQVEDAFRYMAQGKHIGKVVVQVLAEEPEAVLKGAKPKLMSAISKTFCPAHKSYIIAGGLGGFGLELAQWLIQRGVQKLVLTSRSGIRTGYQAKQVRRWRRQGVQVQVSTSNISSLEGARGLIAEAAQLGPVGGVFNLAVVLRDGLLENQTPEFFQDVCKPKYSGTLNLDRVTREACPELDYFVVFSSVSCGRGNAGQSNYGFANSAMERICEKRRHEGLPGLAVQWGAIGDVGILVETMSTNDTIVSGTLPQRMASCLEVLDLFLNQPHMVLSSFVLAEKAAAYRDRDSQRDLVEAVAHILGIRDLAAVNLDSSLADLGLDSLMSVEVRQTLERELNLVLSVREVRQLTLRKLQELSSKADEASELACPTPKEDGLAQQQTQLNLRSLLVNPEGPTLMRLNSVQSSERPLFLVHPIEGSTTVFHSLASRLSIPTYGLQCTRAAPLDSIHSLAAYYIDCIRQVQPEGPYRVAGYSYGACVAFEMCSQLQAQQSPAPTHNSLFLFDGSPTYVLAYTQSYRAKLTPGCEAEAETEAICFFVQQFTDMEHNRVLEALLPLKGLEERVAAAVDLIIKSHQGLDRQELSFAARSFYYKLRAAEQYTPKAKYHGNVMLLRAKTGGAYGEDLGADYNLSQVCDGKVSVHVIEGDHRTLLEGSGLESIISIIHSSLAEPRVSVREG
# PROTOCOL_TEXT: FAS thioesterase domain inhibitors, dose response, biochemical, kinetic fluorescence intensity (AID 624326);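 note: rate of fluorescence rise from hydrolysis of a fluorogenic O-methyl fluorescein ester substrate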
# Assay type: functional
Active and inactive are the calls of the source.
OBSERVATION_TYPE: IC50

1) CCn1cc(C(=O)NCc2ccc3c(c2)OCO3)c(=O)c2cc(S(=O)(=O)N(C)C)ccc21; 12.1 µM (active)
2) O=C(CNC(=O)c1ccccc1)N/N=C/c1cc(Br)ccc1O; 10.2 µM (active)
3) CC(C)(C)OC(=O)NCc1ccc(CNC(=O)c2[nH]cnc2C(=O)NCC(=O)OCc2ccccc2)cc1; 4.49 µM (active)
4) O=C(Nc1ccccc1)c1nnsc1S(=O)(=O)c1ccc(Cl)cc1; 5.14 µM (active)

###

# SUBJECT_OF_TEST: Caspase-3 (Homo sapiens)
# Sequence (P42574 whole entry): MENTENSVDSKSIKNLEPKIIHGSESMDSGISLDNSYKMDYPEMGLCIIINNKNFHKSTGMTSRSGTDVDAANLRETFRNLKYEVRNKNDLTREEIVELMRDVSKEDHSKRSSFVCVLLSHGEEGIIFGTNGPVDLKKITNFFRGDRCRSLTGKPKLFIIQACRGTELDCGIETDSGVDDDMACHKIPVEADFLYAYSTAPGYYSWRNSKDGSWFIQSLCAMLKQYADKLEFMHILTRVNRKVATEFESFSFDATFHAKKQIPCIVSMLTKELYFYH
# PROTOCOL_TEXT: SAR Analysis of small molecule inhibitors of Sentrin-specific proteases (SENPs) using a Caspase-3 Selectivity assay. [Related pubchem assays (depositor defined):AID2540, AID2599, AID434973, AID489001]
# Type: functional
The source made the active and inactive calls.
Outcomes: label 1 = active, label 0 = inactive

1) Cc1ccc(S(=O)(=O)Nc2ccc3sc(NC(=O)c4ccccc4)nc3c2)cc1; label 0
2) COc1ccc(N/N=C/c2cn(Cc3ccccc3)c3ccccc23)cc1; label 0
3) Cc1cccc(-c2noc(/C=C/c3ccccc3)n2)c1; label 1
4) O=C(O)c1ccc(OC2CSC2)cc1; label 0
5) CCOC(=O)c1c(-c2ccc(Br)cc2)csc1NC(=O)C1CC1; label 0
6) CS(=O)(=O)c1ccc2nc(NC(=O)c3cccc(NS(=O)(=O)c4ccccc4)c3)sc2c1; label 0

###

// reported AC50 for each item listed
# SUBJECT_OF_TEST: Cyclin-dependent kinase 5/CDK5 activator 1 (Homo sapiens, UniProt Q00535)
# PROTOCOL_TEXT: CDK5/p35 kinase inhibitors, dose response, biochemical, cherry-picked samples, set 2 (AID 504545)
Activity calls are given as the source filed them.
OBSERVATION_TYPE: AC50

1. CN1CCN(C(=O)c2ccc3c(c2)NC(=O)/C(=C/c2ccccc2)S3)CC1; 29.7 µM (active)
2. COc1ccc(C(=O)ON=C(N)c2ccccn2)cc1; 12.6 µM (active)
3. CCNc1nc(N)nc(-c2cc(Cl)ccc2O)n1; 7.06 µM (active)
4. Cc1nn(-c2ncccn2)c2c1C(=O)CC(C)(C)C2Br (centres undefined); 69.7 µM (active)

###

# SUBJECT_OF_TEST: Glucose-6-phosphate 1-dehydrogenase (Homo sapiens, UniProt P11413)
# PROTOCOL_TEXT: human G6PD enzyme inhibitors, dose response, selectivity assay for P. falciparum G6PD inhibitor project, biochemical, fluorescence (AID 504792)
# Format: functional
The source made the active and inactive calls.
IC50 by entry:
OBSERVATION_TYPE: IC50

1) Cc1ccc(S(=O)(=O)N(C)C)cc1NC(=O)CSc1nc2cc(Cl)c[nH]c-2n1; > 80 µM (inactive)
2) CCn1c(SCc2nc3scc(-c4ccccc4)c3c(=O)[nH]2)nnc1-c1cccs1; > 80 µM (inactive)
3) Cc1ccc(S(=O)(=O)Oc2cccc(/C=N/Nc3ccc(C(=O)O)cc3)c2)cc1; 53.5 µM (inactive)
4) COc1ccc(C(=O)c2c(C(F)(F)F)oc3c2C(=O)c2ccccc2C3=O)cc1; > 80 µM (inactive)
5) CN(C)c1ccc(C=c2c3cc(O)ccc3n3c2cc(-c2ccccc2)[n+]3C)cc1; > 80 µM (inactive)

###

# PROTOCOL_TEXT: Luminescence Cell-Based Dose Confirmation HTS to Identify Activators of 5'UTR Stem-Loop Driven Alpha-Synuclein mRNA Translation in H4 Neuroglioblastoma Cells. [Related pubchem assays: 1829 (Project Summary), 1814 (Primary HTS)]
# Type: functional
Calls of active or inactive are those of the source.
OBSERVATION_TYPE: EC50

1) O=c1c2ccccc2cnn1CCOc1cccc(Br)c1; 27.5 µM (active)
2) O=C(C[n+]1cc(-c2ccc(F)cc2)n2c1CCC2)c1cccs1; < 0.1 µM (active)
3) O=C(CN1CCCCC1)Nc1scc2c1c(=O)oc1ccccc12; > 120 µM (not active)
4) COc1cc(C)c(Cl)c(C)c1S(=O)(=O)NC1CC(C)(C)NC(C)(C)C1; 15.2 µM (active)

###

# SUBJECT_OF_TEST: Melanocortin receptor 4 (Homo sapiens)
# Sequence (P32245 whole entry): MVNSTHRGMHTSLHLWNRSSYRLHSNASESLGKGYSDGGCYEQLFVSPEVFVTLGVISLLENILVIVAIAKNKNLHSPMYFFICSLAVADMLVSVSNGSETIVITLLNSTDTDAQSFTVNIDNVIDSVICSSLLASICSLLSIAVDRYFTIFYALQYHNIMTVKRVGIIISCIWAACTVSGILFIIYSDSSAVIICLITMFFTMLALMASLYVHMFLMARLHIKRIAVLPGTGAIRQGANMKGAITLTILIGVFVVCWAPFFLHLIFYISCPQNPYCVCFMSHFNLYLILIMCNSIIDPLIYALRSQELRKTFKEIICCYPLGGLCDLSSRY
# Assay type: functional, cell-based
Calls of active or inactive are those of the source.
// EC50 lookup, one value per entry
OBSERVATION_TYPE: EC50

1. C/C(=N\NC(=O)COc1cccc2ccccc12)c1cccs1; > 89.2 µM (inactive)
2. CC(=O)Nc1cc(-c2cccnc2)cn2c(-c3ccc(F)cc3)cnc12; > 89.2 µM (inactive)
3. COc1ccc(CNC(=O)Nc2nc(C(N)Cc3ccc(C(F)(F)F)cc3)cs2)cc1 (stereo not given); > 89.2 µM (inactive)
4. COc1ccc(-c2cc(NC=O)c3ncc(-c4cccc(C(F)(F)F)c4)n3c2)cc1OC; 12.4 µM (inactive)
5. Cc1ccccc1-c1nc(-c2ccc(NC(=O)c3ccc(Br)o3)cc2)no1; > 89.2 µM (inactive)

###

# SUBJECT_OF_TEST: Replicative DNA helicase DnaB (Mycobacterium tuberculosis)
# PROTOCOL_TEXT: DnaB intein splicing inhibitors, dose response, biochemical, cell-free fluorescence (AID 449749)
# Format: functional
Where a name gives a salt, the structure may show the parent alone. Active and inactive are the calls of the source.
Classes used: class 1 (active), class 0 (inactive)

1) COc1ccc(Cc2nccc3cc(OC)c(OC)cc23)cc1OC [PAPAVERINE HYDROCHLORIDE]; class 1
2) COc1ccc2c(c1)C(=C(C#N)C#N)C(=O)N2CCc1ccccc1; class 1
3) COc1ccc(-c2cc(C#N)nc(Cl)n2)cc1; class 1
4) Cc1ccc(-c2noc(-c3ccccc3C(=O)N3CCOCC3)n2)cc1; class 1
5) COc1ccc(/C=N/NC(=O)c2nn(-c3ccc(Cl)cc3)c(=O)c3c(N)scc23)cc1; class 0
6) N=c1c2c(ncn1Cc1ccco1)Oc1ccc3ccccc3c1C2c1ccccc1 (stereo not given); class 1
7) Nc1nn2c(-c3ccccc3)cc(O)nc2c1N=Nc1ccc(O)cc1; class 1
8) O=C(Nc1ccccc1)c1nnsc1S(=O)(=O)c1ccc(Cl)cc1; class 1
9) O=[N+]([O-])c1cc([N+](=O)[O-])c2c(Nc3ccccc3)n(-c3ccccc3)[n+]([O-])c2c1; class 1
10) CCOc1ccccc1C1C(C#N)=C(N)Oc2[nH]nc(CC)c21 (stereo not given); class 1
